# Target under test: human p38 kinase alpha (Homo sapiens, UniProt Q16539)
# Construct: GST (N, cleaved yes); made in house; host or cells: E. coli DH10B
# Sequence (Q16539 whole entry): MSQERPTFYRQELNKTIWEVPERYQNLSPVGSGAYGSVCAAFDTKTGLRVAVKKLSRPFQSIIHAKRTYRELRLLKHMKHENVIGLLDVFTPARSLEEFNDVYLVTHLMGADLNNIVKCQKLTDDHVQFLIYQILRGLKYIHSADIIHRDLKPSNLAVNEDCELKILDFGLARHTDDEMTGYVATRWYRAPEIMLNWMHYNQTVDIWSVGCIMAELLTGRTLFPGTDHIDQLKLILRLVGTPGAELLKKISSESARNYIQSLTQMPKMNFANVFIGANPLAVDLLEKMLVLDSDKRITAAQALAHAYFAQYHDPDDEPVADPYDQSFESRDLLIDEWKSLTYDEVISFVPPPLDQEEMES
# Test protocol: p38 kinase in vitro assay, phosphorylation of biotinylated PHAS-I with 32P-ATP
# Format: biochemical
# Test settings: in vitro P38-alpha kinase; read-out: P38 alpha kinase IC50
# Description: The coding region of the human p38a cDNA was obtained by PCR-amplification from RNA isolated from the human monocyte cell line THP.1. […] Random primer, dNTP's and Superscript™ reagents were all purchased from Life-Technologies, Gaithersburg, Mass. The reaction was incubated at 42° C. for 1 hour. […]
Measure name: IC50 (µM)

Please review the following examples before continuing.
Molecule	Value unit	IC50
CC(C)COC(=O)N1CCC(c2[nH]nc(-c3ccc(F)cc3)c2-c2ccncc2)CC1 [Example B-1424]	µM	0.86
O=S(=O)(NCCCc1[nH]nc(-c2ccc(F)cc2)c1-c1ccncc1)c1ccc(Br)cc1 [Example B-1237]	µM	0.22
Cc1c(-c2ccncc2)c(-c2ccc(F)cc2)nn1CC(=O)NCc1ccccn1 [Example B-2281]	µM	0.81

a = O=S(=O)(NCCCc1[nH]nc(-c2ccc(F)cc2)c1-c1ccncc1)c1cccc(Cl)c1Cl [Example B-1250]
b = O=C(NCCCc1[nH]nc(-c2ccc(F)cc2)c1-c1ccncc1)NCC1CC1 [Example B-1316]
c = N#Cc1ccc(C(=O)N2CCC(c3[nH]nc(-c4ccc(F)cc4)c3-c3ccncc3)CC2)cc1 [Example B-1392]
d = O=S(=O)(NCCCc1[nH]nc(-c2ccc(F)cc2)c1-c1ccncc1)c1ccc2ccccc2c1 [Example B-1280]
Form: Sort by [IC50] Order [ ascending ] Output the labels ranked as instructed. b, d, c, a

1 = O=C(NCCCc1[nH]nc(-c2ccc(F)cc2)c1-c1ccncc1)c1cccc(C(F)(F)F)c1 [Example B-1324]
2 = O=S(=O)(NCCCc1[nH]nc(-c2ccc(F)cc2)c1-c1ccncc1)c1ccc(C(F)(F)F)cc1 [Example B-1264]
Input pair: 1 , 2 . Output: entry with lower IC50. # answer = label of selected item 1

a = O=C(NCCCc1[nH]nc(-c2ccc(F)cc2)c1-c1ccncc1)c1c(F)ccc(F)c1F [Example B-1332]
b = O=S(=O)(c1ccccc1Br)N1CCC(c2[nH]nc(-c3ccc(F)cc3)c2-c2ccncc2)CC1 [Example B-1458]
Input pair: a , b . Output: entry with lower IC50. # answer = label of selected item a

P = Cc1c(-c2ccncc2)c(-c2ccc(F)cc2)nn1CC(=O)NCC(=O)OC(C)(C)C [Example B-2309]
Q = O=S(=O)(c1cc(Cl)cc(Cl)c1)N1CCC(c2[nH]nc(-c3ccc(F)cc3)c2-c2ccncc2)CC1 [Example B-1453]
Input pair: P , Q . Output: entry with lower IC50. # answer = label of selected item P
(P: 0.29 µM, Q: 2.53 µM)
